Hello, the source for this data is patent US11407765B2, in case you need it.

- system: KRasG12C (Homo sapiens, UniProt P01116, G12C)
- Construct: biotin (biotinylated); made in house
- Sequence (P01116 1-188 isoform P01116-2 G12C): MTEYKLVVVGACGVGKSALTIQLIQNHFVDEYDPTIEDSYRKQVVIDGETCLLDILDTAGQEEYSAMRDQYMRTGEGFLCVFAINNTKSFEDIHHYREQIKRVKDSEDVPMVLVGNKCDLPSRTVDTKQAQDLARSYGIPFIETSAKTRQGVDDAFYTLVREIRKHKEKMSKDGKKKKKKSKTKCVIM
- assay.explanation: KRasG12C functional assay (HTRF, SOS-mediated nucleotide exchange / Raf RBD binding)
- Format: biochemical
- details: 4 hrs incubation with GDP loaded biotinylated KRasG12C; single experiment or average of two or more; read-out: KRasG12C functional assay IC50 value
pIC50: −log10 of the molar value.
param class (str): category from pIC50; see ranges low range: < 6; mid range: ≥ 6 and < 7; high range: ≥ 7

Query string: Kindly state the category for this compound: C=CC(=O)N1CCN2c3ncnc4c(F)c(-c5c(C)ccc6[nH]nnc56)c(Cl)c(c34)OC[C@@H]2C1 (single isomer, unassigned) [Example 19]
Result string: high range

Query string: Kindly state the category for this compound: C=CC(=O)N1C[C@H]2COc3c(Cl)c(-c4c(C)ccc5[nH]cnc45)c(F)c4ncnc(c34)N2C[C@H]1C (single isomer, unassigned) [Example 46]
Result string: high range

Query string: Kindly state the category for this compound: C=CC(=O)N1CCN2c3ncnc4c(F)c(-c5c(C)ccc6cc[nH]c(=O)c56)c(Cl)c(c34)OCCC2C1 (single isomer, unassigned) [Example 37]
Result string: mid range

Query string: Kindly state the category for this compound: C=CC(=O)N1CCN2c3ncnc4c(F)c(-c5c(C)ccc6cc[nH]c(=O)c56)c(Cl)c(c34)OCCC2C1 (single isomer, unassigned) [Example 35]
Result string: low range

Query string: Kindly state the category for this compound: C=CC(=O)N1CCN2c3ncnc4c(F)c(-c5c(C)ccc6cc[nH]c(=O)c56)c(Cl)c(c34)OC[C@@H]2C1 (single isomer, unassigned) [Example 17]
Result string: mid range

Query string: Kindly state the category for this compound: C=CC(=O)N1C[C@H]2COc3c(Cl)c(-c4c(O)cccc4F)c(F)c4ncnc(c34)N2C[C@H]1C (single isomer, unassigned) [Example 4]
Result string: high range

Query string: Kindly state the category for this compound: C=CC(=O)N1CCN2c3ncnc4c(F)c(-c5c(C)ccc6[nH]cnc56)c(Cl)c(c34)OC[C@@H]2C1 (single isomer, unassigned) [Example 9]
Result string: mid range

Query string: Kindly state the category for this compound: C=CC(=O)N1CCN2c3ncnc4c(F)c(-c5c(F)ccc6[nH]ncc56)c(Cl)c(c34)OC[C@@H]2C1 (single isomer, unassigned) [Example 23]
Result string: low range

Query string: Kindly state the category for this compound: C=CC(=O)N1CCN2c3ncnc4c(F)c(-c5c(C)ccc6nc[nH]c(=O)c56)c(Cl)c(c34)OC[C@@H]2C1 (single isomer, unassigned) [Example 7]
Result string: low range

Query string: Kindly state the category for this compound: Cc1ccc2[nH]ncc2c1-c1c(Cl)c2c3c(ncnc3c1F)N1CCN(C(=O)/C=C/CN(C)C)C[C@H]1CO2 (single isomer, unassigned) [Example 30]
Result string: mid range

Query string: Kindly state the category for this compound: C=CC(=O)N1CCN2c3ncnc4c(F)c(-c5c(C)ccc6c5C(=O)NC6)c(Cl)c(c34)OC[C@@H]2C1 (single isomer, unassigned) [Example 1]
Result string: high range
